Biological target: T1, IL-18 binding protein (IL-18BP) (UniProt O95998 31-194)
T1 sequence (looked up): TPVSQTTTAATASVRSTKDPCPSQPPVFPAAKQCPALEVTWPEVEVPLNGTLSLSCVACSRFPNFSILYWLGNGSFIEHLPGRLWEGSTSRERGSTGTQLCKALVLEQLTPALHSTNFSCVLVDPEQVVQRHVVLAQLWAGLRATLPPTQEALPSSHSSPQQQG
Test: cell-based or functional assay
Property: Activity, +100 nM BP, DF-5000003; scope: individual binders
Write no unit; give the number alone.

IL-18 variant E6T, D54P, S55K, R104S (ligand) YFGKLTSKLSVIRNLNDQVLFIDQGNRPLFEDMTDSDMRDNAPRTIFIISMYKPKQPRGMAVTISVKSEKISTLSSENKIISFKEMNPPDNIKDTKSDIIFFQSSVPGHDNKMQFESSSYEGYFLASEKERDLFKLILKKEDELGDRSIMFTVQNED    0.09

Now turn to the next binder.
Input: Give the measured Activity, +100 nM BP, DF-5000003 of IL-18 variant G3P, E6K, D54Y, S55P, T63S, N91S, R104Q, Q154R (ligand) YFPKLKSKLSVIRNLNDQVLFIDQGNRPLFEDMTDSDMRDNAPRTIFIISMYKYPQPRGMAVSISVKSEKISTLSSENKIISFKEMNPPDSIKDTKSDIIFFQQSVPGHDNKMQFESSSYEGYFLASEKERDLFKLILKKEDELGDRSIMFTVRNED .
Output: 0.81

Numbers sourced from patent US20240182536A1.
